experiment: chemical genetic growth profiling, strain panel (AID 1159580);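 also: tested at 20 µM; growth read once vehicle control cultures reached saturation at 30 °C; 1 = growth at the plate median or of vehicle wells; lower values mean less growth of the strain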; conditions: S. cerevisiae deletion strains, growth OD, locus YHR205W, strain SCH9, stronger effect = lower value
The campaign covered roughly 5,500 compounds. About 2,000 (36%) were called active. Not shown: some 18% with an inconclusive outcome. This is one part of the list.
measurement_kind: normalized growth

>>> reported("O=C(N/N=C\\c1cc(Br)ccc1O)c1ccccc1Oc1ccccc1")
0.838
>>> reported("Cc1nc(-c2ccccn2)[nH]c(=O)c1Cc1c(Cl)cccc1Cl")
0.939
>>> reported("CCOC(=O)c1cc(CC)sc1NC(=O)c1ccc([N+](=O)[O-])o1")
0.153
>>> reported("Brc1ccc2[nH]c3c(c2c1)CCC3")
0.666
>>> reported("CCCc1nc(-c2ccccn2)[nH]c(=O)c1CC1CC1")
0.98
>>> reported("O=S(=O)(NC(=S)Nc1ccc(Cl)c(Cl)c1)c1ccccc1")
0.995

====

Collected normalized growth values appear next to each entry.
experiment: chemical genetic growth profiling, strain panel (AID 1159580); conditions: S. cerevisiae deletion strains, growth OD, locus YNL248C, strain rpa49, stronger effect = lower value
Among all 5,500 compounds or so, about 2,000 (36%) were called active. Not shown: some 18% with an inconclusive outcome. The list shows a part of the results.
measurement_kind: normalized growth

>>> reported("OC(CCN1CCCC1)(c1ccccc1)C1CCCCC1 (configuration not stated)")
1.01
>>> reported("OC(CCN1CCCCC1)(c1ccccc1)C1CC2C=CC1C2 (configuration not stated)")
1
>>> reported("CO[C@@]12[C@@H]3NC3CN1C1=C(C(=O)C(N)=C(C)C1=O)[C@@H]2COC(N)=O (some centres not stated)")
0.99
>>> reported("OC(CCN1CCCCC1)(c1ccccc1)C1CCCCC1 (configuration not stated)")
0.995
>>> reported("O=c1ccc2ccc(O)cc2o1")
0.999
>>> reported("O=c1oc2cc(O)ccc2s1")
1.04
>>> reported("CCOC(=O)OC(C)OC(=O)C1N2C(=O)C(NC(=O)[C@H](N)c3ccccc3)C2SC1(C)C (some centres not stated)")
0.985

====

assay: chemical genetic growth profiling, strain panel (AID 1159580); conditions: S. cerevisiae deletion strains, growth OD, locus YNL233W, strain BNI4
Hit rate of the full screen: of about 5,500 compounds, about 2,000 (36%) were called active. About 18% were inconclusive and are not listed. Cut-off read from the data, not from the text of the source: active = normalized growth mostly below about 0.91 (no sharp cut-off); inconclusive = no clear call, values can overlap the other calls; inactive = mostly above about 0.92. The list shows a part of the results.
Labels: active, inactive

>>> category_label("O=C1C(O)=C(O)C(=O)C(O)=C1O")
"inactive"
>>> category_label("C[C@@H]1OC(O[C@H]2[C@H](O)[C@@H](O)[C@H](OC[C@H]3O[C@@H](OC(=O)[C@]45CCC(C)(C)CC4C4=CCC6[C@@]7(C)CC[C@H](OC8OC[C@H](O)[C@H](O)[C@H]8OC8O[C@@H](C)[C@H](O)[C@@H](O)[C@H]8O)[C@@](C)(CO)C7CC[C@@]6(C)[C@]4(C)CC5)[C@H](O)[C@@H](O)[C@@H]3O)O[C@@H]2CO)[C@H](O)[C@H](O)[C@H]1O (stereo partly drawn)")
"inactive"
>>> category_label("CC(C)=CCCC1(C)C=Cc2c(O)c3c(c(CC=C(C)C)c2O1)OC12C(=CC4CC1C(C)(C)OC2(C/C=C(/C)C(=O)O)C4=O)C3=O (stereo not drawn)")
"active"

====

Collected normalized growth values appear next to each entry.
assay: chemical genetic growth profiling, strain panel (AID 1159580); conditions: S. cerevisiae deletion strains, growth OD, locus YPL106C, strain sse1, stronger effect = lower value
Screen size: about 5,500 compounds; about 2,000 (36%) were called active. Another 18% or so got no clear call; they are omitted. The list shows a part of the results.
measurement_kind: normalized growth

>>> reported("O=c1oc2cc(O)ccc2s1")
1.02
>>> reported("Cc1ccnc(NS(=O)(=O)c2ccc(N)cc2)n1")
0.968
>>> reported("C/C=C(/C)C(=O)O[C@@H]1[C@H](OC(C)=O)[C@@]2(CO)C(CC1(C)C)C1=CCC3[C@@]4(C)CC[C@H](O[C@@H]5O[C@H](C(=O)O)[C@@H](O[C@@H]6O[C@H](CO)[C@@H](O)[C@H](O)[C@H]6O)[C@H](O)[C@H]5O[C@@H]5O[C@H](CO)[C@@H](O)[C@H](O)[C@H]5O)[C@](C)(CO)C4CC[C@@]3(C)[C@]1(C)C[C@H]2O (some centres not stated)")
0.981
>>> reported("N=C(N)c1ccc(OCCCCCOc2ccc(C(=N)N)cc2)cc1")
0.948
>>> reported("C[C@H]1[C@H](C)CC[C@]2(CO)CC[C@]3(C)C(=CCC4[C@@]5(C)CC[C@H](O)C(C)(C)C5CC[C@]43C)[C@H]12 (some centres not stated)")
1.09
>>> reported("CC(CC(=O)C1OC1(C)C)C1C(=O)CC2(C)C3=CCC4C(C)(C)C(OC5OCC(O)C(O)C5O)CCC45CC35C(O)CC12C (configuration not stated)")
1.04
>>> reported("O=c1ccc2ccc(O)cc2o1")
1.03

====

Each entry below lists one item and its recorded normalized growth value.
assay: chemical genetic growth profiling, strain panel (AID 1159580);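 also: tested at 20 µM; growth read once vehicle control cultures reached saturation at 30 °C; 1 = growth at the plate median or of vehicle wells; lower values mean less growth of the strain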; details: S. cerevisiae deletion strains, growth OD, locus YCL029C, strain bik1, stronger effect = lower value
Screen size: about 5,500 compounds; about 2,000 (36%) were called active. About 18% were inconclusive and are not listed. This is one part of the list.
measurement_kind: normalized growth

>>> reported("C/C=C(/C)C(=O)OC1CCC2(C)C3CCC4C5(O)CC(O)C6(O)C(CN7CC(C)CCC7C6(C)O)C5(O)CC42OC13O (stereo unspecified)")
0.979
>>> reported("COc1ccc2[nH]cc(CCN)c2c1")
0.998
>>> reported("COC(=O)/C(C)=C\\CC12OC(C)(C)C3CC(C=C4C(=O)c5c(O)c6c(c(CCC(C)(C)Cl)c5OC431)OC1(C)CCC(=C(C)C)C6C1)C2=O (stereo unspecified)")
0.997
>>> reported("CC(C)=CCCC1(C)C=Cc2c(O)c3c(c(CC=C(C)C)c2O1)OC12C(=CC4CC1C(C)(C)OC2(C/C=C(/C)C(=O)O)C4=O)C3=O (stereo unspecified)")
0.987
>>> reported("C/C=C(/C)C(=O)O[C@H]1CC[C@@]2(C)[C@@H]3CC[C@H]4[C@]5(O)C[C@H](O)[C@@]6(O)[C@@H](CN7C[C@@H](C)CC[C@H]7[C@@]6(C)O)[C@]5(O)C[C@@]42O[C@]13O")
0.988
>>> reported("Nc1c2ccccc2nc2ccccc12")
0.412
>>> reported("O=c1[nH]cc(F)c(=O)[nH]1")
0.717
>>> reported("CC(C)=CCCC1(C)C=Cc2c(O)c3c(c(CC=C(C)C)c2O1)OC12C(=CCCC1C(C)(C)O[C@@]2(C/C=C(\\C)C(=O)O)C(=O)O)C3=O (stereo partly specified)")
0.907
>>> reported("Cc1cn([C@H]2C[C@H](N=[N+]=[N-])[C@@H](CO)O2)c(=O)[nH]c1=O")
1.01
>>> reported("CC(C)=CCCC1(C)C=Cc2c(O)c3c(c(CC=C(C)C)c2O1)OC12C(=CC4CC1C(C)(C)OC2(C/C=C(\\C)C(N)=O)C4=O)C3=O (stereo unspecified)")
0.977
>>> reported("Nc1ccc(S(=O)(=O)Nc2cnc3ccccc3n2)cc1")
0.983

====

test: chemical genetic growth profiling, strain panel (AID 1159580);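 also: tested at 20 µM; growth read once vehicle control cultures reached saturation at 30 °C; 1 = growth at the plate median or of vehicle wells; lower values mean less growth of the strain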; conditions: S. cerevisiae deletion strains, growth OD, locus YLR039C, strain RIC1
Screen size: about 5,500 compounds; about 2,000 (36%) were called active. About 18% were inconclusive and are not listed. Cut-off read from the data, not from the text of the source: active = normalized growth mostly below about 0.91 (no sharp cut-off); inconclusive = no clear call, values can overlap the other calls; inactive = mostly above about 0.92. This is one part of the list.
Possible outcomes: true (1) (active), false (0) (inactive)

>>> category_label("CC1(C)CC[C@@]2(C(=O)O)C(C1)C1=CCC3[C@@]4(C)CC[C@H](O)C(C)(C)C4CC[C@@]3(C)[C@]1(C)C[C@@H]2O (stereo partly specified)")
"false (0)"
>>> category_label("CCOC(=O)NC(=O)c1cn(Cc2cccs2)c(=O)[nH]c1=O")
"false (0)"
>>> category_label("COc1cc(OC)nc(N)n1")
"false (0)"
>>> category_label("O=c1[nH]cc(F)c(=O)[nH]1")
"true (1)"
>>> category_label("Cc1cc(C)cc(NC(=S)N2CCN(c3ncc(C(F)(F)F)cc3Cl)CC2)c1")
"false (0)"
>>> category_label("CC(C)c1ccccc1NC(=S)N1CCN(c2ncc(C(F)(F)F)cc2Cl)CC1")
"true (1)"

====

assay: chemical genetic growth profiling, strain panel (AID 1159580);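 also: tested at 20 µM; growth read once vehicle control cultures reached saturation at 30 °C; 1 = growth at the plate median or of vehicle wells; lower values mean less growth of the strain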; conditions: S. cerevisiae deletion strains, growth OD, locus YPL256C, strain CLN2
In all, about 5,500 compounds went through this assay and about 2,000 (36%) were called active. Inconclusive results (about 18%) are left out. Cut-off read from the data, not from the text of the source: active = normalized growth mostly below about 0.91 (no sharp cut-off); inconclusive = no clear call, values can overlap the other calls; inactive = mostly above about 0.92. The list shows a part of the results. Where a SMILES comes first, the peptide text is derived from it. Bridges are numbered along the chain shown (N, C = ends). [ ]: non-standard residue; d: D form. The star is where a group is joined. ξ: configuration not given here. ξDab(CH2SO3H) = NC(CCNCS(=O)(=O)O)C(=O)O; Heptanoyl(6-Me) = CC(C)CCCCC(=O)*; Dab = NCC[CH](N)C(=O)O
Outcomes: active, inactive

>>> category_label("CC(C)CCCC1(C)C=Cc2c(O)c3c(c(CCC(C)C)c2O1)OC12C(CC4CC1C(C)(C)OC2(CCC(C)C(=O)O)C4O)C3=O (stereo unspecified)")
"inactive"
>>> category_label("COc1ccc2c(c1)c(CC(=O)OCC(=O)O)c(C)n2C(=O)c1ccc(Cl)cc1")
"inactive"
>>> category_label("C#C[C@]1(O)CCC2C3CCC4=CC(=O)CC[C@@H]4C3CC[C@@]21C (stereo partly specified)")
"inactive"
>>> category_label("CSc1n[nH]c(-c2cc(C(F)(F)F)cc(C(F)(F)F)c2)n1")
"active"
>>> category_label("C#C[C@]1(OC(C)=O)CCC2C3CCC4=C/C(=N\\O)CCC4C3CC[C@@]21CC (stereo partly specified)")
"active"
>>> category_label("COc1ccc2c3c([nH]c2c1)C(C)=NCC3")
"inactive"
>>> category_label("Nc1ccccc1C(=O)N/N=C\\c1cc(Br)ccc1O")
"active"
>>> category_label("CNCc1ccccc1")
"inactive"
>>> category_label("CCN1C[C@]2(OC(=O)c3ccccc3NC(C)=O)CCC(OC)[C@]34C1[C@H](CC23)[C@@]1(O)CC(OC)[C@H]2CC4C1(O)[C@H]2OC (stereo partly specified)")
"inactive"
>>> category_label("OC(CCN1CCCCC1)(c1ccccc1)C1CC2C=CC1C2 (stereo unspecified)")
"inactive"
>>> category_label("COC1=C(O)C(=O)c2c(cc3oc(C(C)=O)c(O)c3c2O)C1=O")
"inactive"
>>> category_label("COc1ccc2c(c1)c(CC(=O)O)c(C)n2C(=O)c1ccc(Cl)cc1")
"inactive"
>>> category_label("O=C(NCC1COc2ccccc2O1)c1ccc(Cl)cc1 (stereo unspecified)")
"inactive"
>>> category_label("COc1cccc2c1C(=O)c1c(O)c3c(c(O)c1C2=O)C[C@@](O)(C(C)=O)C[C@@H]3O[C@H]1C[C@H](N)[C@H](O)[C@H](C)O1")
"inactive"
>>> category_label("Cc1csc(NC(=O)Nc2ccc(C(F)(F)F)cc2)c1")
"active"
>>> category_label("Fc1cccc(Cl)c1CSc1n[nH]c(-c2cc(C(F)(F)F)cc(C(F)(F)F)c2)n1")
"active"
>>> category_label("O=P(O)(O)C(O)(Cc1cccnc1)P(=O)(O)O")
"inactive"
>>> category_label("CCC(C)C1NC(=O)C(CCNCS(=O)(=O)O)NC(=O)C(NC(=O)C(CCNCS(=O)(=O)O)NC(=O)C(NC(=O)C(CCNCS(=O)(=O)O)NC(=O)CCCCC(C)C)C(C)O)CCNC(=O)C(C(C)O)NC(=O)C(CCNCS(=O)(=O)O)NC(=O)C(CCNCS(=O)(=O)O)NC(=O)C(C(C)CC)NC1=O (stereo unspecified) ({Heptanoyl(6-Me)}-[ξDab(CH2SO3H)]T[ξDab(CH2SO3H)][Dab][ξDab(CH2SO3H)]II[ξDab(CH2SO3H)][ξDab(CH2SO3H)]T; lactam 4-C; configuration not given here)")
"inactive"
>>> category_label("Nc1c2ccccc2nc2ccccc12")
"active"
>>> category_label("S=C(NNC(=S)NC1CC2C=CC1C2)Nc1ccc(Br)c(Cl)c1 (stereo unspecified)")
"inactive"
>>> category_label("CC1(C)CC[C@]2(C(=O)O)CC[C@]3(C)C(=CCC4[C@@]5(C)CC[C@H](O)[C@@](C)(CO)C5CC[C@]43C)C2C1 (stereo partly specified)")
"inactive"
>>> category_label("O=S(=O)(NC(=S)Nc1ccc(Cl)c(Cl)c1)c1ccccc1")
"inactive"
>>> category_label("C[C@H]1[C@H](C)CC[C@]2(CO)CC[C@]3(C)C(=CCC4[C@@]5(C)CC[C@H](O)C(C)(C)C5CC[C@]43C)[C@H]12 (stereo partly specified)")
"inactive"
>>> category_label("C/C=C(/C)C(=O)O[C@@H]1[C@H](OC(C)=O)[C@@]2(CO)C(CC1(C)C)C1=CCC3[C@@]4(C)CC[C@H](O[C@@H]5O[C@H](C(=O)O)[C@@H](O[C@@H]6O[C@H](CO)[C@@H](O)[C@H](O)[C@H]6O)[C@H](O)[C@H]5O[C@@H]5O[C@H](CO)[C@@H](O)[C@H](O)[C@H]5O)[C@](C)(CO)C4CC[C@@]3(C)[C@]1(C)C[C@H]2O (stereo partly specified)")
"inactive"
>>> category_label("C#C[C@]1(O)CCC2C3CCC4=C(CCC(=O)C4)C3CC[C@@]21C (stereo partly specified)")
"inactive"
>>> category_label("S=C(NCc1ccccc1)Nc1ccc(Cl)c(Cl)c1")
"inactive"
>>> category_label("Nc1ccccc1C(=O)CC(N)C(=O)O (stereo unspecified)")
"inactive"
>>> category_label("O=C(CNC(=O)c1ccc(Cl)cc1)NO")
"inactive"
>>> category_label("COc1cccc2c1C(=O)c1c(O)c3c(c(O)c1C2=O)C[C@@](O)(C(=O)CO)C[C@@H]3O[C@H]1C[C@H](N)[C@@H](O)[C@H](C)O1")
"inactive"
>>> category_label("Clc1cc(Cl)cc(-c2nc(SCc3ccc(Cl)cc3Cl)n[nH]2)c1")
"active"
>>> category_label("OC(CCN1CCCCC1)(c1ccccc1)C1CCCCC1 (stereo unspecified)")
"inactive"
>>> category_label("CN(C)CCCSC(=N)N")
"inactive"
>>> category_label("COc1cccc(NC(=S)NC2CC(C)CC(C)(C)C2)c1 (stereo unspecified)")
"inactive"
>>> category_label("COC(=O)c1cnn(-c2c(Cl)cccc2Cl)c1C=C(C#N)C#N")
"active"
>>> category_label("COc1ccc2nc3ccccc3c(N)c2c1")
"active"
>>> category_label("OC(CCN1CCCC1)(c1ccccc1)C1CCCCC1 (stereo unspecified)")
"inactive"
